Target: T1, DR4G143: Human HLA-DRA1*01:02/DRB1*04:01 ECD_VimentineL70A (human)
T1 construct: also called DRB1*04:01 VitL70A
Assay: MSD ECL; antigen coated; protocol of Example 3
MEASURED_ENDPOINT: ECL signal (ECL)
Just the number please, in ECL, no unit attached.

Qu. Returns the measured ECL signal for the input binder. Input: DR4B5 (antibody, V domains shown, also called apolizumab (1D10) re-engineered as IgG2sigma) VH: QVQLQESGPGLVKPSETLSLTCTVSGFSLTNYGVHWVRQSPGKGLEWIGVKWSGGSTEYNAAFISRLTISKDTSKNQVSLKLNSLTAADTAVYYCARNDRYAMDYWGQGTLVTVSS VL: DIQMTQSPSSLSASVGDRVTITCRASENIYSYLAWYQQKPGKAPKLLVSNAKTLAEGVPSRFSGSGSGKQFTLTISSLQPEDFATYYCQHHYGNSYPFGQGTKLEIK
Ans. 22600
